Tested on: mPTP
PROTOCOL DESCRIPTION: mPTP activity (Ca2+ retention) assay in isolated rat liver mitochondria
Type: biochemical
MEASUREMENT CONTEXT: examples tested by different contract research organisations, believed comparable
QUANTITY: mPTP Rat liver pIC50

Some solved cases for reference:
{"columns": ["COMPOUND", "mPTP Rat liver pIC50"],
 "data": [
  ["Cc1n[nH]c(C(=O)NCC2(Cc3ccccc3)CCC2)n1 [Example 64]", "<4.52"],
  ["Cn1nc(C(=O)NCC2(Cc3ccc(C(F)(F)F)cc3F)CCC2)[nH]c1=O [Example 104]", "<4.57"],
  ["O=C(NCC1(Cc2ccc(F)cc2F)CCC1)c1nnn[nH]1 [Example 140]", "<4.57"]
]}

Now look at this entry.
mPTP Rat liver pIC50 measured on O=C(NCC1(Cc2ccc(F)cc2F)CCC1)c1cnc[nH]c1=O [Example 213] = <4.57
